We begin with a simple list: items and their reported CC50.
# Test system: SW48 human colorectal cancer cells
# assay notes: Calculated free drug potency in SW48 cell assay, corrected with media free fraction (Example C)
# Type: cell-based
# run parameters: Homo sapiens, SW48, SW48 pCC50 corrected with measured free fraction in cell assay media
Counter-ions that a name gives are not always drawn.
// units = nM; emit number, no label

>  <compound>
Cc1nc2cc(S(=O)(=O)N(C)c3ccc([C@H]4C[C@@H](OC5CCC5)C[C@@H](C(=O)Nc5ccc(C(F)(F)F)cc5F)[C@@H]4C(=O)O)cc3)ccc2n1C (stereo in doubt)

>  <measured>
17.4

$$$$

The compound CO[C@@H]1C[C@H](C(=O)Nc2ccc(C(F)(F)F)cc2F)[C@@H](C(=O)O)[C@H](c2ccc(N(C)S(=O)(=O)c3ccc4c(c3)nc(C)n4C)cc2)C1 (relative stereo) , tested on SW48 human colorectal cancer cells, showed CC50 of 25.7

Entry Cc1nc2cc(S(=O)(=O)N(C)c3ccc([C@@H]4C[C@H](N5CCC(F)(F)CC5)C[C@H](C(=O)Nc5ccc(C(F)(F)F)cc5F)[C@H]4C(=O)O)cc3)ccc2n1C (stereo in doubt) : CC50 on SW48 human colorectal cancer cells = 1170

Simply: Cc1nc2cc(S(=O)(=O)N(C)c3ccc([C@H]4CCC[C@@H](C(=O)Nc5ccc(C(F)(F)F)cc5)[C@@H]4C(=O)O)cc3)ccc2n1C , SW48 human colorectal cancer cells, CC50 = 10.2

// CC50 (SW48 human colorectal cancer cells) for Cc1nc2cc(S(=O)(=O)N(C)c3ccc([C@@H]4CCC[C@H](COc5ccc(C(F)(F)F)cc5)[C@H]4C(=O)O)cc3)cc([C@@H]3CCCNC3)c2n1C (relative stereo) [Example 207, hydrochloride] = 110

Values were extracted from patent US12662451B2.
